- STUDY_SYSTEM: T1, UL34^(174–194) peptide, spin-labelled at C182 (herpes simplex virus 1 (HSV-1), UniProt P10218 174-194, N-terminally acetylated; C-terminally amidated; MTSL spin label on the native cysteine C182)
- T1 construct: also called UL34 MPR peptide; C182_(34); source: synthetic peptide, bought: Peptide 2.0
- T1 peptide: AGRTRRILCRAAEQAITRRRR
- MEASUREMENT_PROTOCOL: DEER (double electron-electron resonance) spectroscopy; MTSL spin-labelled peptides, approximately 50 μM peptide or 1:1 peptide mixture with POPC/POPS/POPA 3:1:1 SUVs, 1:200 P/L ratio, incubated 10 min at 25°C, frozen, measured at 60 K
- TEST_PARAMETERS: both partners purified
* marks the point of attachment. MTSL = spin label, CC1(C)C=C(CS*)C(C)(C)N1[O]

BINDER: Ac-RKSLPPHARKC(MTSL)-NH2 (SMILES CC(=O)N[C@@H](CCCNC(=N)N)C(=O)N[C@@H](CCCCN)C(=O)N[C@@H](CO)C(=O)N[C@@H](CC(C)C)C(=O)N1CCC[C@H]1C(=O)N1CCC[C@H]1C(=O)N[C@@H](Cc1c[nH]cn1)C(=O)N[C@@H](C)C(=O)N[C@@H](CCCNC(=N)N)C(=O)N[C@@H](CCCCN)C(=O)N[C@@H](CSSCC1=CC(C)(C)N([O])C1(C)C)C(N)=O, also called mini-MPR with C-terminal cysteine; C51_(31); source: synthetic peptide, bought: Peptide 2.0) [UL31^(41–C51) peptide, spin-labelled]
binding result: binds
//
BINDER: Ac-C(MTSL)RRSRSSAAGGTLGVVRRASRK-NH2 (also called C21_(31); source: synthetic peptide, bought: Peptide 2.0) [UL31^(C21–42) peptide, spin-labelled]
binding result: binds
//
BINDER: Ac-C(MTSL)RKSLPPHARK-NH2 (SMILES CC(=O)N[C@@H](CSSCC1=CC(C)(C)N([O])C1(C)C)C(=O)N[C@@H](CCCNC(=N)N)C(=O)N[C@@H](CCCCN)C(=O)N[C@@H](CO)C(=O)N[C@@H](CC(C)C)C(=O)N1CCC[C@H]1C(=O)N1CCC[C@H]1C(=O)N[C@@H](Cc1c[nH]cn1)C(=O)N[C@@H](C)C(=O)N[C@@H](CCCNC(=N)N)C(=O)N[C@@H](CCCCN)C(N)=O, also called mini-MPR with N-terminal cysteine; C40_(31); source: synthetic peptide, bought: Peptide 2.0) [UL31^(C40–50) peptide, spin-labelled]
binding result: binds
//
BINDER: Ac-RRSRSSAAGGTLGVVRRASRKC(MTSL)-NH2 (also called C43_(31); source: synthetic peptide, bought: Peptide 2.0) [UL31^(22–C43) peptide, spin-labelled]
binding result: binds
